Assay Notes: Toxicity in Galleria mellonella larvae assessed as survival at 256 ug/ml measured after 72 hrs relative to control
Test Context: at 256 µg/mL
Measured Parameter: survival at 72 h (%)
The response must be a number in % with no trailing unit.

Given Cc1c(O)c(=O)ccn1CCCCc1ccccc1.Cl , state its recorded survival at 72 h.
100

* * *

Assay Notes: Toxicity in Galleria mellonella larvae assessed as survival at 512 ug/ml measured after 72 hrs relative to control
Test Context: at 512 µg/mL
Measured Parameter: survival at 72 h (%)
The response must be a number in % with no trailing unit.

Given Cc1c(O)c(=O)ccn1CCCCc1ccccc1.Cl , state its recorded survival at 72 h.
86

* * *

Assay Notes: Toxicity in Galleria mellonella larvae assessed as survival at 256 ug/ml measured after 24 hrs relative to control
Test Context: at 256 µg/mL
Measured Parameter: survival at 24 h (%)
The response must be a number in % with no trailing unit.

Given Cc1c(O)c(=O)ccn1CCCCc1ccccc1.Cl , state its recorded survival at 24 h.
100

* * *

Assay Notes: Toxicity in Galleria mellonella larvae assessed as survival at 128 ug/ml measured after 72 hrs relative to control
Test Context: at 128 µg/mL
Measured Parameter: survival at 72 h
Please answer using the number first and the unit second.

Given Cc1c(O)c(=O)ccn1CCCCc1ccccc1.Cl , state its recorded survival at 72 h.
100%

* * *

Assay Notes: Toxicity in Galleria mellonella larvae assessed as survival at 64 ug/ml measured after 72 hrs relative to control
Test Context: at 64 µg/mL
Measured Parameter: survival at 72 h (%)
The response must be a number in % with no trailing unit.

Given Cc1c(O)c(=O)ccn1CCCCc1ccccc1.Cl , state its recorded survival at 72 h.
100

* * *

# MBIC50 annotations
Test system: Candida albicans
Assay Notes: Antibiofilm activity against Candida albicans ATCC 10231 assessed as inhibition of biofilm formation
Assay type: functional
The response must be a number in µg/mL with no trailing unit.

Reference set, count: 6
Cc1c(OCc2ccccc2)c(=O)ccn1CCCCNC(=O)Cc1ccc(CC(C)C)cc1; 64
Cc1c(O)c(=O)ccn1CCCc1ccccc1.Cl; 32
Cc1c(O)c(=O)ccn1CCCCc1ccccc1.Cl; 16
Cc1c(O)c(=O)ccn1CCCCNC(=O)Cc1ccc(CC(C)C)cc1; 64
Cc1c(O)c(=O)ccn1CCCCCn1ccc(=O)c(O)c1C.Cl.Cl; 128
Cc1c(O)c(=O)ccn1CCCCNC(=O)C(C)c1ccc(C(=O)c2ccccc2)cc1 (stereo not drawn); 128

Given Cc1c(OCc2ccccc2)c(=O)ccn1CCCCNC(=O)C(C)c1ccc(CC(C)C)cc1 (stereo not drawn) , state its recorded MBIC50.
32

Given Cc1c(O)c(=O)ccn1CCCCNC(=O)C(C)c1ccc(CC(C)C)cc1 (stereo not drawn) , state its recorded MBIC50.
128

Given Cc1c(OCc2ccccc2)c(=O)ccn1CCCCn1ccc(=O)c(OCc2ccccc2)c1C , state its recorded MBIC50.
128

Given Cc1c(O)c(=O)ccn1C , state its recorded MBIC50.
32
